Hello, the source for this data is PubChem BioAssay (NCI), in case you need it.

Test system: HCT-116 colon
Test: NCI-60 one-dose screen, 48 h
Conditions: 10 µM unless noted
Experimental: Growth inhibition of the HCT-116 human tumor cell line is measured as a screen for anti-cancer activity. Cells are grown in 96 well plates and exposed to the test compound for 48 hours. Compounds are tested at a single concentration, which is 10^-5 M for most compounds. The reported endpoint is percent growth (GI% or GIPRCNT), where numbers from 0 - 100% represent growth inhibition, and numbers from -100% - 0 represent cell death. For example, a value of 40 represents 60% growth inhibition. […]
About 83,000 compounds went through this panel and 20% of them were active in at least one assay; those are over-represented in the sample as a whole. Activity calls are given as the source filed them. How the source made its calls: active means growth percent below 10; inactive means the rest.
Labels: active, inactive

[[record]]
compound = "O=C(/C=C/c1cccc(F)c1)c1cccc(OCCCOc2cccc(C(=O)/C=C/c3cccc(F)c3)c2)c1"
target = "HCT-116 colon"
group_label = "active"

[[record]]
compound = "Fc1ccc(-c2cn3c(-c4c[nH]c5ccc(Br)cc45)csc3n2)cc1"
target = "HCT-116 colon"
group_label = "inactive"

[[record]]
compound = "CN1CCN(Cc2ccc(/C=N/Nc3ccnc4cc(Cl)ccc34)cc2)CC1"
target = "HCT-116 colon"
group_label = "inactive"

[[record]]
compound = "CCc1cc(OC(=O)N2CCC(N3CCCCC3)CC2)ccc1Nc1cc(-c2ccc(-n3cccn3)cc2)[nH]n1"
target = "HCT-116 colon"
group_label = "active"

[[record]]
compound = "C/C(=N\\NC(=O)/C=C/CC(=O)O)c1nnn(-c2ccc([N+](=O)[O-])cc2)c1C"
target = "HCT-116 colon"
group_label = "inactive"

[[record]]
compound = "O=C(Nc1cccc(Cl)c1)Nc1nc2cc([N+](=O)[O-])ccc2o1"
target = "HCT-116 colon"
group_label = "inactive"

[[record]]
compound = "COc1ccc(/C=N/N=C(/c2ccccc2)c2ccc3nc(-c4ccc(Cl)cc4)[nH]c3c2)cc1"
target = "HCT-116 colon"
group_label = "inactive"

[[record]]
compound = "O=C(CSc1nnc(-c2cccs2)n1-c1ccccc1)Nc1ccccc1F"
target = "HCT-116 colon"
group_label = "inactive"

[[record]]
compound = "COc1cc(C(=O)c2cc(C(C)=O)c3ccc(C)cn23)cc(OC)c1OC"
target = "HCT-116 colon"
group_label = "inactive"

[[record]]
compound = "CN1CCN(c2ccc(Nc3nc(NCCNC(=O)c4ccc(F)cc4)c4sccc4n3)cc2)CC1"
target = "HCT-116 colon"
group_label = "inactive"

[[record]]
compound = "COC(=O)CNC(=O)c1cccc(-c2cc(=O)c3c(OC)c(OC)c(OC)cc3o2)c1"
target = "HCT-116 colon"
group_label = "inactive"

[[record]]
compound = "CCCCSC1=C(Cl)CN(c2ccccc2)C1=O"
target = "HCT-116 colon"
group_label = "inactive"

[[record]]
compound = "CC(C)NC(=O)c1cc(-c2ccc(NC(=O)Nc3ccc(F)c(C(F)(F)F)c3)cc2)nc2cccnc12"
target = "HCT-116 colon"
group_label = "inactive"

[[record]]
compound = "CN1CCN(c2ccc(Nc3nc(NCCCNS(=O)(=O)c4ccc(C(F)(F)F)cc4)c4sccc4n3)cc2)CC1"
target = "HCT-116 colon"
group_label = "active"

[[record]]
compound = "Clc1cccc(/C=N/Nc2nc(N/N=C/c3cccc(Cl)c3)nc(N3CCOCC3)n2)c1"
target = "HCT-116 colon"
group_label = "inactive"

[[record]]
compound = "CCOC(=O)C1=C(C)NC(C)=C(C(=O)OC(C)C)C1c1cccc(C#N)c1 (centres undefined)"
target = "HCT-116 colon"
group_label = "inactive"

[[record]]
compound = "CNCCN(C)c1ccc(Nc2cc(NC3CC3)n3ncc(C#N)c3n2)cc1NC(C)=O"
target = "HCT-116 colon"
group_label = "active"

[[record]]
compound = "COc1ccc(NC(=O)CCCCCCNC(=O)C(O)(O)C(F)(F)F)cc1"
target = "HCT-116 colon"
group_label = "active"

[[record]]
compound = "NC(N)=NS(=O)(=O)c1ccc(N=Nc2c(N)nn(-c3ccc([N+](=O)[O-])cc3[N+](=O)[O-])c2N)cc1"
target = "HCT-116 colon"
group_label = "inactive"


* * *

test system: SF-268 CNS; test: NCI-60 one-dose screen, 48 h (100 = growth as untreated, 0 = no growth, -100 = all killed); details: 10 µM unless noted
Compounds without any hit were thinned out: in the full panel of roughly 83,000, 20% have a hit.
growth strictly under 90% means True; at 90% or over means False.

[[record]]
molecule_smiles = "CN(C)CCNc1ccc2ncc(C#Cc3cncc(C(=O)Nc4ccc(CN5CCN(C)CC5)c(C(F)(F)F)c4)c3)n2n1"
target = "SF-268 CNS"
group_label = "True"

[[record]]
molecule_smiles = "CCN(CC)CCOc1ccc(C(=C(C)c2ccc(OC)cc2)c2ccc(OCCN(CC)CC)cc2)cc1"
target = "SF-268 CNS"
group_label = "True"

[[record]]
molecule_smiles = "CC/C(=C(/c1ccc(Cl)cc1)c1ccc(OCCN)cc1)c1ccccc1"
target = "SF-268 CNS"
group_label = "False"

[[record]]
molecule_smiles = "NC(=O)n1c(=O)n(-c2cccc(C(F)(F)F)c2)c(=O)c2cc(-c3ccc(F)cc3F)ccc21"
target = "SF-268 CNS"
group_label = "True"


* * *

tested on: M14 melanoma; assay: NCI-60 one-dose screen, 48 h (100 = growth as untreated, 0 = no growth, -100 = all killed); details: 10 µM unless noted
Compounds without any hit were thinned out: in the full panel of roughly 83,000, 20% have a hit.
Recorded Endpoint: growth (%)

[[record]]
compound = "CC1(C)CC[C@]23CC[C@]4(C)[C@H](CC[C@@H]5[C@@]6(C)CC[C@H](NCO)C(C)(C)[C@@H]6CC[C@]54C)[C@H]2[C@H]1OC3"
value_reported = 35.9

[[record]]
compound = "COc1cc(C(C)=C(c2ccc(OCCN(C)C)cc2)c2ccc(OCCN(C)C)cc2)ccc1F"
value_reported = 110

[[record]]
compound = "CCCC/C(=C\\c1ccc(O)c(O)c1)C(=O)NC(Cc1ccccc1)C(=O)C(=O)NCCc1ccc(OC)cc1 (stereo not drawn)"
value_reported = 95

[[record]]
compound = "Cc1ccc(-c2csc(N/N=C/c3cccs3)n2)cc1"
value_reported = 90.4

[[record]]
compound = "O=[N+]([O-])c1ccc(NC(=S)NNC(=S)Nc2ccc(Br)cc2)cc1"
value_reported = 87.9

[[record]]
compound = "O=C(CCCCCCNC(=O)C(O)(O)C(F)(F)F)Nc1nc2ccccc2s1"
value_reported = 14.5

[[record]]
compound = "Oc1[nH]c2ccc(Cl)cc2c1N=Nc1nc(N=Nc2c(O)[nH]c3ccc(Cl)cc23)nc(N2CCCCC2)n1"
value_reported = 81.1

[[record]]
compound = "O=C(NCCNc1cc(-c2cn(-c3ccccc3)nc2-c2cccc(O)c2)ccn1)Nc1cc(C(F)(F)F)cc(C(F)(F)F)c1"
value_reported = 89


* * *

System: ACHN renal
Assay: NCI-60 one-dose screen, 48 h (100 = growth as untreated, 0 = no growth, -100 = all killed)
Conditions: 10 µM unless noted
Procedure: Growth inhibition of the ACHN human tumor cell line is measured as a screen for anti-cancer activity. Cells are grown in 96 well plates and exposed to the test compound for 48 hours. Compounds are tested at a single concentration, which is 10^-5 M for most compounds. The reported endpoint is percent growth (GI% or GIPRCNT), where numbers from 0 - 100% represent growth inhibition, and numbers from -100% - 0 represent cell death. For example, a value of 40 represents 60% growth inhibition. […]
The panel holds about 83,000 compounds, 20% with a hit somewhere; the sample as a whole holds those more often.
Below, each entry is listed alongside its reported growth.
Recorded Endpoint: growth (%)

[[record]]
molecule_smiles = "CC1(C)CC[C@]2(C(=O)O)CC[C@]3(C)C(=CC[C@@H]4[C@@]5(C)CC[C@H](NOCCCN)C(C)(C)[C@@H]5CC[C@]43C)[C@@H]2C1"
target = "ACHN renal"
value_reported = 97.8

[[record]]
molecule_smiles = "CCCc1[nH]c(-c2cc(N)ccc2Cl)c2c1C(=O)CCCC2"
target = "ACHN renal"
value_reported = 107

[[record]]
molecule_smiles = "NS(=O)(=O)c1ccc(Nc2nc(N/N=C/C=C/c3ccccc3)nc(Nc3ccccc3)n2)cc1"
target = "ACHN renal"
value_reported = 38.5

[[record]]
molecule_smiles = "CCOC(=O)c1c(NC(=O)c2cccc(C(F)(F)F)c2)sc2c1CCC(=O)C2"
target = "ACHN renal"
value_reported = 8.52


* * *

tested on: SF-539 CNS; assay: NCI-60 one-dose screen, 48 h (100 = growth as untreated, 0 = no growth, -100 = all killed); details: 10 µM unless noted
About 83,000 compounds went through this panel and 20% of them were active in at least one assay; those are over-represented in the sample as a whole. Activity calls are given as the source filed them. Rule for the calls: active = growth percent below 10; inactive = the rest.
Below, each entry is listed alongside its reported growth.
Recorded Endpoint: growth

[[record]]
molecule_smiles = "COc1cc(C(=O)c2cc(C(C)=O)c3c(C)cccn23)cc(OC)c1OC"
recorded_endpoint = "growth"
value_reported = "97.5% (inactive)"

[[record]]
molecule_smiles = "CC1(C)CC[C@]23CC[C@]4(C)[C@H](CC[C@@H]5[C@@]6(C)CC[C@H](NCO)C(C)(C)[C@@H]6CC[C@]54C)[C@H]2[C@H]1OC3"
recorded_endpoint = "growth"
value_reported = "69% (inactive)"

[[record]]
molecule_smiles = "O=S(=O)(Oc1ccc(-c2cn3ccoc3n2)cc1)C1CCCCC1"
recorded_endpoint = "growth"
value_reported = "97% (inactive)"

[[record]]
molecule_smiles = "O=C1Nc2ccccc2/C1=C/c1ccc(OCC(=O)c2ccccc2)cc1"
recorded_endpoint = "growth"
value_reported = "90.6% (inactive)"

[[record]]
molecule_smiles = "CCCCCC[n+]1ccc(SCC(=O)n2ccc3ccccc32)c2ccccc21"
recorded_endpoint = "growth"
value_reported = "96.3% (inactive)"

